Catalogue of compounds with associated TGI
- System: HOP-92 NSCLC
- assay_notes: NCI tumour cell line growth inhibition, 48 h
measurement_type: TGI

> print(dat)
                                   compound  experimental.target  recorded.measurement
1    COc1ccc(CCNC2=CC(=O)c3ncccc3C2=O)cc1OC         HOP-92 NSCLC               35.8 µM
2    CC(=O)c1csc2c1C(=O)c1scc(C(C)=O)c1C2=O         HOP-92 NSCLC               3.92 µM
3  O=C(O)c1ccccc1-c1ccccc1C(=O)Nc1ccc2c(c1)Cc1cc(F)ccc1-2         HOP-92 NSCLC              > 100 µM
4                       Nc1nc(Cl)cc(NCCO)n1         HOP-92 NSCLC              > 100 µM
5         CN1CCOC1(C)CO (centres undefined)         HOP-92 NSCLC              > 100 µM
6  CC(=O)OCC1OC(Nc2ncc(-c3ccc(C)cc3)s2)C(OC(C)=O)C(OC(C)=O)C1OC(C)=O (centres undefined)         HOP-92 NSCLC              > 100 µM
7  CC(C)=CCS(=O)c1ccccc1NC1=CC(=O)CC(C)(C)C1 (centres undefined)         HOP-92 NSCLC              > 100 µM
8         Cc1cccc(/C=N/NC(=S)NCCc2ccccn2)n1         HOP-92 NSCLC              > 100 µM
9  O=C1c2ccn(CCCCNC(CO)(CO)CO)c2C(=O)c2c1c(O)c1ccccc1c2O         HOP-92 NSCLC               19.6 µM

---

- System: HL-60(TB) leukemia
- assay_notes: NCI tumour cell line growth inhibition, 48 h
measurement_type: TGI

> print(dat)
                                   compound  recorded.measurement
1  O=C(O)c1nc(-c2ccccn2)c(-c2ccccn2)nc1C(=O)O               18.3 µM
2                   CC1=C(Br)C(Br)=C(C)S1=O               18.1 µM
3  COc1ccc(C(=O)C(CO)Oc2ccccc2OC)cc1OC (stereo unspecified)              > 100 µM
4  Cc1cn(C2CC(ON3C(=O)c4ccccc4C3=O)C(CO)O2)c(=O)[nH]c1=O (stereo unspecified)               > 10 µM
5                 CC(C)(C)N1CC2(CCCCC2)C1=O              > 100 µM
6  Cc1ccc2c(c1CCCC(C)(C)O)C(=O)C(=O)C(C(C)C)=C2O              > 100 µM

---

Reported TGI values for a set of compounds
- Test system: NCI/ADR-RES ovarian
- assay_notes: NCI tumour cell line growth inhibition, 48 h
measurement_type: TGI

> print(dat)
                                   compound  recorded.measurement
1  Cc1cc(C)cc(C(=N)c2ccccc2Cc2cccc3ccccc23)c1               46.3 µM
2  CCOC(=O)C1=C(C)N(N)C(=S)NC1c1ccc(C)cc1 (stereo not drawn)              > 100 µM
3  CCOC(=O)C(N)CSC(=O)NC (stereo not drawn)                362 µM
4         Cc1cccc(/C=N/NC(=S)NCCc2ccccn2)n1             > 73.7 µM
5  O=c1c(-c2ccccc2)c(SCCCN2CCN(c3cccc(Cl)c3)CC2)n(-c2ccccc2)c(=S)n1-c1ccccc1              > 100 µM
6  COC(=O)C1=C(C)NC(C)=C(C(=O)OC)C1c1ccc(/[N+]([O-])=C/c2ccccc2)cc1              > 100 µM
7                   COc1ccccc1/C=C/c1cnccn1               > 10 µM
8         CCOC(=O)C1=C(Nc2cccc(OC)c2)OCC1=O              > 100 µM

---

- Test system: DU-145 prostate
- assay_notes: NCI tumour cell line growth inhibition, 48 h; in the data active = GI50 below about 0.43 µM; inactive = the rest
Possible outcomes: active, inactive

> print(dat)
                                   molecule  assigned.class
1  COc1cc(NC(C)CCCN)c2nccc(C)c2c1OC (centres undefined)        inactive
2  O=C(Nc1cccc(Cl)c1Cl)c1cccc(NC2=C(Cl)C(=O)N(Cc3ccccc3)C2=O)c1        inactive
3  CCN1C(=O)N(CC)C2C1NC(=S)N2/N=C/C=C/c1cccs1 (centres undefined)          active
4  COc1ccc(/C=c2/sc3n(c2=O)C(c2ccc(OC)c(OC)c2)C2=C(N=3)c3cc(F)ccc3OC2)cc1 (centres undefined)        inactive
5  COc1ccc(-n2cc(-c3ccc(Cl)c(Cl)c3)nc2SCc2cccc(C#N)c2)cc1        inactive
6  CCOC(=O)N1CCN(C(=O)c2ccc(C(F)(F)F)nc2Nc2cc(Cl)ccc2C)CC1        inactive
7  Cc1[nH]n(-c2cccc(Cl)c2)c(=O)c1/C=C1\C=Nc2ccc(Br)cc21        inactive
8  O=C1c2ccn(CCCCNC(CO)(CO)CO)c2C(=O)c2c1c(O)c1ccccc1c2O        inactive
9  CC(=O)O[C@@H]1C[C@]2(C(C)C)O[C@@]1(C)[C@@H]1CCC(C)=C1[C@@H]2OC(=O)/C=C/c1ccccc1        inactive

---

- Tested on: A549 NSCLC
- assay_notes: NCI tumour cell line growth inhibition, 48 h
measurement_type: GI50

> print(dat)
                                   molecule  measurement.type  recorded.measurement
1  Cc1[nH][nH]c(=O)c1C=Nc1ccc(-c2nc3ccccc3[nH]2)cc1              GI50               42.9 µM
2  Nc1c(C(=O)N/N=C/c2ccc(-c3ccc(Cl)cc3)o2)cnn1-c1ccnc2c(C(F)(F)F)cccc12              GI50               83.9 µM
3  Cc1[nH]n(-c2cccc(Cl)c2)c(=O)c1/C=C1\C=Nc2ccc(Br)cc21              GI50               2.27 µM
4  COc1ccc(/C=c2/sc3n(c2=O)C(c2ccc(OC)c(OC)c2)C2=C(N=3)c3cc(F)ccc3OC2)cc1 (centres undefined)              GI50               23.6 µM
5  O=C(Nc1cccc(Cl)c1Cl)c1cccc(NC2=C(Cl)C(=O)N(Cc3ccccc3)C2=O)c1              GI50               36.2 µM
6  O=C1/C(=C\c2cccn2Cc2ccccc2)c2ccccc2N1c1c(Cl)cccc1Cl              GI50               8.32 µM
7          O=C(N/N=C\c1cc(Br)ccc1O)c1ccncc1              GI50               4.27 µM
8  Cc1ccc(N(CSc2ccc(Cl)cc2)CSc2ccc(Cl)cc2)cc1              GI50              0.448 µM
9  C#C[C@]1(O)CC[C@H]2[C@@H]3CC=C4c5sc(Nc6ccccc6)nc5CC[C@]4(C)[C@H]3CC[C@@]21C              GI50               3.48 µM

Data origin: PubChem BioAssay (NCI)
